Ref: the nanobody polyreactivity screen of Harvey et al. (2022)

# assayProcedure: yeast display, Sf9 membrane polyspecificity reagent, FACS + sequencing; frameworks hold sequencing errors
property: polyreactivity (PSR sort gate)

These solved cases illustrate the format of a correct answer.
residues: QVQLVESGGGLVQAGGSLRLTCAASGITFTQNAMGWYRQAPGKERELVAAISRSGTITYYADSVKGRFTISRDHAKNTVYLQMNSLKPEDTAVYYCNKLRPQRSWEYDYWGQGTQVTVSS
polyreactivity (PSR sort gate): high polyreactivity
--
residues: QVQLVESGGGLVQAGGSLRLSCADSGRIFVRKAMGWYRQAPGKERELVAAISARGGRTNYADSVKGRFTISRDNAKNTVYLQMNSLKPEDTAVYYCAADGLRAAYLYDYWGQGTQVTVSS
polyreactivity (PSR sort gate): high polyreactivity
--
residues: QVQLVESGGGLVQAGGSLRLSCAASGLIFYYYAMGWYRQAPGKEREVVAAISSNGGSTYYADSVKGRFTISRDNAKNTVYLQMNSLKPEDTAVYYCAAGYAYYYWTPYYYWGQGTQVTVSS
polyreactivity (PSR sort gate): high polyreactivity
--
residues: QGQLVESGGGLVQAGGSLRLSCAPSGSTVWVNVMGCYSPARGKERELVAAIDSGGSTYYADSVKGRFTISRDKAKNTVYLQMISLKPEDTAVYYCNARVDTPSPYDYWGQGTQVTVSS
polyreactivity (PSR sort gate): low polyreactivity
--
residues: QVQLVESGGGLVQAGGSLRLSCAASGRTFGPYAKGWYRQAPGKERELVAAITDTGSGTFYADSVKGRFTISRDNAKNTVYFQMNSLKPEDTAVYYCNAVRKYWGQGTEVTVSS
polyreactivity (PSR sort gate): low polyreactivity
--
residues: QVQLVESGGGLVQAGGSLRLRCDASGRTFFKNAMGWYRQAPGKERELVAAITSTGGRTYYADSVKGRFPISRDTAKNNVYVEMNSLKPEDTAVYYCAASNFYSGYYYWRQGTQVTVSS
polyreactivity (PSR sort gate): high polyreactivity
--
residues: QVQLVESGRGLVQAGVSLRLSCAASGPTFRGNVMGRYRKAPGKERELVAAINWTGSSTYYADSVKGGFTISRDNAKNTVYLQMNSLKPEDTAVDYCATRIGPHGGGLPRDYWGQGTQVTVSS
polyreactivity (PSR sort gate): low polyreactivity
--
residues: QVQLVESGGGLVQAGGSLRLSCAASGSIFYSNAMGWYRQAPGKERELVAAISDGGTSTYYADSVKGRFTISRDNAKNTVYFQMNSLKPEDTAVYYCAAESTLQDWNWYKYYYWGQGTQVTVSS
polyreactivity (PSR sort gate): low polyreactivity

In: Report polyreactivity (PSR sort gate) for QVQLVESGGGLVQAGGSLRLSCAASGIIFIHNAMGGYRQAPGTERELVAAINWSGGRTSYADSVKGRFTISRDNAKNTVYLQMTRLKPEDTAVYYCAADGRRYSGEYYYWGQGTQVTVSS please.
Out: high polyreactivity

In: Given the sequence QVQLVESGGGLVQAGGSLRLSCAASRFYTMGWYRPAPGKERELVAAISWSGGDTYYADSVKGRYTISRDNAKNTVYLQMNSLKPEDPAVFYCNKDYSFEYSLRHRDYWGQGTQVTVSS , what is its reported polyreactivity (PSR sort gate)?
Out: low polyreactivity

In: Please report the recorded polyreactivity (PSR sort gate) for QVQLVESGGGLVQAGGSLRLSCAASGSIFAWYAMGWYRQAPGKERELVAAIRFRGGSTYYADSVKGRFTISRDNAKNTVYLQMNSLKPEDTAVYYCAGYYWYRSYYWGQGTQVTVSS .
Out: high polyreactivity
